- TEST_SUMMARY: logP determination (neutral / HCOOH)
- MEASUREMENT_SETUP: HCOOH (formic acid), logP (HCOOH), HCOOH
QUANTITY_MEASURED: chromatographic logP
Reply: number alone, nothing else.

1. c1cncc(-c2cnn(-c3cccnc3)c2)c1 ... 0.39
2. C=C1COC(c2cccc(-c3cnn(-c4cccnc4)c3)n2)OC1 ... 1.9
3. FC(F)(F)c1ccc(-c2cnn(-c3cccnc3)c2)nc1 ... 2.38
4. CC1(C)OB(c2cnn(-c3cncc(F)c3)c2)OC1(C)C ... 2.88
5. CN(C)C(=O)c1cccc(-c2cnn(-c3cccnc3)c2)n1 ... 1.24
6. O=C(NCC(F)(F)F)c1ccc(-c2cnn(-c3cccnc3)c2)nc1 ... 1.53

Read off the recorded chromatographic logP for COc1ccnc(-n2ccc(-c3cnn(-c4cccnc4)c3)n2)n1 1.71

Read off the recorded chromatographic logP for O=C(Nc1cccc(-c2cnn(-c3cccnc3)c2)n1)C(F)(F)F 2.21

Read off the recorded chromatographic logP for Fc1cncc(-n2cc(-c3cccc(-c4ncccn4)n3)cn2)c1 1.81

Read off the recorded chromatographic logP for CCOC(=O)c1cccc(-c2cnn(-c3cccnc3)c2)n1 1.83

---

- TEST_SUMMARY: physchem
// values below are reported logP
Reply: number alone, nothing else.

1. c1cnc(-c2cccc(-c3cnn(-c4cccnc4)c3)n2)nc1 ... 1.52
2. c1cncc(-n2cc(-c3cccc(-c4ncon4)n3)cn2)c1 ... 1.54

Read off the recorded logP for c1cncc(-n2cc(-c3cccc(-c4nccnn4)n3)cn2)c1 1.32

---

- TEST_SUMMARY: logP determination (neutral / HCOOH)
- MEASUREMENT_SETUP: HCOOH (formic acid), logP (HCOOH), HCOOH
YES if chromatographic logP is below 2. NO if not; exact matches included in NO.

Sample answers from the record:
1. FC(F)(F)c1cccc(-c2cnn(-c3cccnc3)c2)c1 ... NO
2. c1ccc(-c2csc(-c3cnn(-c4cccnc4)c3)n2)nc1 ... YES
3. c1cnc(-c2nccc(-c3cnn(-c4cccnc4)c3)n2)nc1 ... YES
4. c1cncc(-n2cc(-c3cccc(-n4cccn4)n3)cn2)c1 ... NO
5. c1cncc(-n2cc(-c3cccc(-c4ncco4)n3)cn2)c1 ... YES

Could you please tell me whether chromatographic logP recorded for CCOc1cc(OCC)nc(-c2nccc(-c3cnn(-c4cccnc4)c3)n2)n1 is less than 2? NO

Could you please tell me whether chromatographic logP recorded for FC(F)(F)c1ccc(-c2cnn(-c3cccnc3)c2)cc1 is less than 2? NO

Could you please tell me whether chromatographic logP recorded for CC1CC(C)OC(c2cccc(-c3cnn(-c4cccnc4)c3)n2)O1 (stereo not drawn) is less than 2? NO

Could you please tell me whether chromatographic logP recorded for N#Cc1cccc(-c2cnn(-c3cncc(F)c3)c2)n1 is less than 2? NO

---

- TEST_SUMMARY: logP determination (neutral / HCOOH)
- MEASUREMENT_SETUP: logP (neutral), neutral
Met if logP is below 2. Not met if not; exact matches included in Not met.

Sample answers from the record:
1. c1cncc(-n2cc(-c3cccc(C4OCC5(CCC5)O4)n3)cn2)c1 (stereo not drawn) ... Not met
2. O=C(NCC(F)(F)F)c1ccc(-c2cnn(-c3cccnc3)c2)nc1 ... Met
3. N#Cc1cccc(-c2cnn(-c3cccnc3)c2)n1 ... Met
4. CC1(c2cccc(-c3cnn(-c4cccnc4)c3)n2)OCCO1 ... Met
5. Nc1cccc(-c2cnn(-c3cccnc3)c2)n1 ... Met

Could you please tell me whether logP recorded for COCC(F)(F)c1cccc(-c2cnn(-c3cccnc3)c2)n1 is less than 2? Not met

Could you please tell me whether logP recorded for c1cncc(-n2cc(-c3cccc(C4OCC5(CC5)CO4)n3)cn2)c1 is less than 2? Not met

Could you please tell me whether logP recorded for c1cc(-c2cnn(-c3cncnc3)c2)nc(C2OCCCO2)c1 is less than 2? Met

Could you please tell me whether logP recorded for O=C(NCC(F)(F)F)c1cnc(-c2cnn(-c3cccnc3)c2)cc1C(F)(F)F is less than 2? Not met

Could you please tell me whether logP recorded for Fc1cncc(-n2cc(-c3cccc(C4OCCCO4)n3)cn2)c1 is less than 2? Not met
